Here the recorded Papp is given for each entry.
test: in vitro
run parameters: PAMPA, PAMPA_Papp_Avg
Where a SMILES comes first, the peptide text is derived from it. [ ]: non-standard residue; d: D form. dNMeF = CN[C@H](Cc1ccccc1)C(=O)O; NMeL = CN[C@@H](CC(C)C)C(=O)O; dNMeL = CN[C@H](CC(C)C)C(=O)O; NMeA = CN[C@@H](C)C(=O)O; dNMeA = CN[C@H](C)C(=O)O
Hi, when you answer, please include the unit after the number. Thanks!

Guide cases for Papp, answers given:
# molecule, observation type, recorded result
data = [
    ("CC[C@H](C)[C@@H]1NC(=O)[C@H]2CCCN2C(=O)[C@@H]2CCCN2C(=O)[C@H](CC(C)C)NC(=O)[C@@H](C(C)C)NC(=O)[C@@H](CC(C)C)N(C)C(=O)[C@@H]2CCCN2C1=O [Design D7.1, PRO *DLEU DVAL LEU PRO DPRO ILE] (cyclo(IP[dNMeL][dV]LP[dP]))", "Papp", "2.93 ×10⁻⁶ cm/s"),
    ("CC[C@@H](C)[C@H]1NC(=O)[C@@H](Cc2ccccc2)N(C)C(=O)[C@@H]2CCCN2C(=O)[C@@H]([C@H](C)CC)NC(=O)[C@@H](Cc2ccccc2)N(C)C(=O)[C@@H]2CCCN2C1=O [Design D6.2, DILE PRO *DPHE DILE PRO *DPHE] (cyclo(P[dNMeF][dI]P[dNMeF][dI]))", "Papp", "12.1 ×10⁻⁶ cm/s"),
    ("CC(C)C[C@@H]1C(=O)N[C@H](Cc2ccccc2)C(=O)N2CCC[C@@H]2C(=O)N2CCC[C@@H]2C(=O)N2CCC[C@H]2C(=O)N[C@H](C(C)C)C(=O)N(C)[C@@H](C)C(=O)N(C)[C@@H](C)C(=O)N(C)[C@H](CC(C)C)C(=O)N1C [Design D9.25] (cyclo([dV][NMeA][NMeA][dNMeL][dNMeL][dF][dP][dP]P))", "Papp", "2.19 ×10⁻⁶ cm/s"),
    ("CC(C)C[C@@H]1NC(=O)[C@H]2CCCN2C(=O)[C@@H]2CCCN2C(=O)[C@H](CC(C)C)NC(=O)[C@@H](CC(C)C)NC(=O)[C@@H](C)N(C)C(=O)[C@@H](C)N(C)C(=O)[C@@H](C(C)C)NC1=O [Design D8.6, LEU PRO DPRO LEU DVAL *DALA *DALA DLEU] (cyclo(LP[dP]L[dV][dNMeA][dNMeA][dL]))", "Papp", "3.35 ×10⁻⁶ cm/s"),
    ("CC[C@H](C)[C@@H]1NC(=O)[C@@H](CC(C)C)N(C)C(=O)[C@H](CC(C)C)N(C)C(=O)[C@H](C)NC(=O)[C@H]2CCCN2C(=O)[C@@H]2CCCN2C(=O)[C@@H]2CCCN2C(=O)[C@@H](C(C)C)NC1=O [Design D8.28, PRO DPRO ALA *LEU *DLEU ILE DVAL PRO] (cyclo(A[NMeL][dNMeL]I[dV]PP[dP]))", "Papp", "1.14 ×10⁻⁶ cm/s"),
]

Turning now to a further record.
Lab book: Papp of CC[C@H](C)[C@@H]1NC(=O)[C@@H](CC(C)C)N(C)C(=O)[C@H](CC(C)C)N(C)C(=O)[C@@H](C)N(C)C(=O)[C@@H](Cc2ccccc2)NC(=O)[C@H](C(C)C)NC(=O)[C@@H](C)NC(=O)[C@@H]2CCCN2C(=O)[C@H]2CCCN2C1=O [Design D9.10] (cyclo([dA]V[dF][dNMeA][NMeL][dNMeL]I[dP]P)) noted as 0.826 ×10⁻⁶ cm/s
